Each item that follows carries a reported log10 of Kd.
Biological target: T1, PUF4 RNA-binding domain (Saccharomyces cerevisiae, UniProt P25339 537-888)
T1 sequence: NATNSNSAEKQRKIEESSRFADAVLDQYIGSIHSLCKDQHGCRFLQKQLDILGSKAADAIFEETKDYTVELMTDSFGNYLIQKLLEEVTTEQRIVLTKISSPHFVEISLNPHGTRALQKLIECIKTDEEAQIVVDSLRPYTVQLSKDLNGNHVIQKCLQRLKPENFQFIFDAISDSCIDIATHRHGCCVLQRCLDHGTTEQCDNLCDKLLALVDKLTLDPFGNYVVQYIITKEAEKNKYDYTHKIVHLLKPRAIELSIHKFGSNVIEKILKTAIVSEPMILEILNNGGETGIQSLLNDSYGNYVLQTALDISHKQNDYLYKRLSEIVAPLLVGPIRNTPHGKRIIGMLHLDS
Experiment: Mg; RNA-MaP; 20 mM Na-HEPES pH 7.4, 30 mM KOAc, 0.75 mM MgCl2, 0.1% Tween-20, 5% glycerol, 0.1 mg/mL BSA, 2 mM DTT; 25 C; 0.0125-409.6 nM protein
Details: tags: N-His6-TEV cleaved; C-SNAP kept, Cy3B-labelled; label: tethered on chip by stalled RNA polymerase
Base-10 log of Kd, unit nM.

• If_S4_P4E.3_K4.2_C4.2_H4.2_A4.1_F4.1_T4.2 (ssRNA) RNA: UUUGACAACUGAUCGUUCUUUCUCUUAUAUAUUAGUUUCUUUCUCGAUCAGUUGUCUUU = 0.95
• UCUCUUUGUAUAUACUCUCUU (ssRNA) [Ib_S1_P4E.1_K4.1_C4.1_H4.1_A4.1_F4.1_[T8A]_[A9C]_T4.1] = 0.91
• UCUCUUGUUGUAUAUAUAUCUCUU (ssRNA) [Id_ii_S1_P3E.2_K3.1_C3.2_[C-2G]_H3.1_A3.1_F3.1_T3.2] = 0.71
• UCUCUUUUUGUAUAUAAUUCUCUU (ssRNA) [Id_ii_S1_P3E.2_K3.1_C3.2_[C-2T]_H3.1_A3.1_F3.1_T3.2_[T9A]_[A10T]] = 0.92

Now examine the next entry.
**Q:** Give the measured log10 of Kd for UCUCUUUGUACCUCUCUCUU (ssRNA) [Ic_S1_P3E.1_K3.1_C3.1_H3.1_A3.1_[T5C]_[A6C]_F3.1_[A8C]_T3.1]
**A:** 2.20
